inhibition of SARS-CoV-2 cytopathic effect values by entry
tested on: Vero E6 infected with SARS-CoV-2; experiment: inhibition of SARS-CoV-2 cytopathic effect; higher = more antiviral protection, active = above 15; details: 8.33 nM; 48 h
Form entry: value (%) — number only.

>>> numeric_readout("c1cc(CN2CCCNCCNCCCNCC2)ccc1CN1CCCNCCNCCCNCC1 [plerixafor]")
-1.5
>>> numeric_readout("CC(C)(Oc1ccc(Cl)cc1)C(=O)OCCOC(=O)c1cccnc1 [etofibrate]")
2.82
>>> numeric_readout("C[C@]12CC[C@H](O)CC1=CC[C@@H]1[C@@H]2CC[C@]2(C)C(=O)CC[C@@H]12")
0.45
>>> numeric_readout("C[C@@H]1O[C@@H](O[C@H]2[C@H](Oc3cc(O)c4c(c3)O[C@H](c3ccc(O)cc3)CC4=O)O[C@H](CO)[C@@H](O)[C@@H]2O)[C@H](O)[C@H](O)[C@H]1O [Naringin (Naringoside)]")
-1.36
>>> numeric_readout("O=C(CCCN1CCC(n2c(=O)[nH]c3ccccc32)CC1)c1ccc(F)cc1 [benperidol]")
-0.44
>>> numeric_readout("CCCCCCCCCCCCCCOc1ccc(C(=O)O)o1")
0.74

Attention now turns to another entry.
Just so you know, measured inhibition of SARS-CoV-2 cytopathic effect for COc1cc2c(cc1F)C(c1ccccc1Cl)=Nc1c(n[nH]c1C)N2 came out at 1.62

* * *

tested on: Vero E6 infected with SARS-CoV-2; assay: inhibition of SARS-CoV-2 cytopathic effect; higher = more antiviral protection, active = above 15; settings: 100 nM; 48 h
# Lookup of reported inhibition of SARS-CoV-2 cytopathic effect keyed by entry
Please respond with the number in % and leave the unit unwritten.

>>> numeric_readout("O=[N+]([O-])c1cncn1CCN1CCOCC1")
0.99
>>> numeric_readout("Nc1ncnc2c1ncn2[C@@H]1O[C@H](COP(=O)(O)OP(=O)(O)OP(=O)(O)O)[C@@H](O)[C@H]1O")
-0.6

Looking up CCOC(=O)[N-]c1c[n+](N2CCOCC2)no1 , I found its inhibition of SARS-CoV-2 cytopathic effect recorded as 2.15

The reported value for Cc1cc(Oc2ccc3nc(COc4ccc(CC5SC(=O)NC5=O)cc4)n(C)c3c2)cc(C)c1N (stereo not given) in terms of inhibition of SARS-CoV-2 cytopathic effect is 0.7

Just so you know, measured inhibition of SARS-CoV-2 cytopathic effect for COc1ccsc1CNCC[C@@]1(c2ccccn2)CCOC2(CCCC2)C1 came out at 0.92

* * *

Measured inhibition of SARS-CoV-2 cytopathic effect, listed per entry.
tested on: Vero E6 infected with SARS-CoV-2; test: inhibition of SARS-CoV-2 cytopathic effect; higher = more antiviral protection, active = above 15; conditions: 100 nM; 48 h
Response body: numeric value in %, unit text excluded.

Example results:
>>> numeric_readout("Nc1ncc(Cc2ccc(Br)cc2)s1")
2.74
>>> numeric_readout("C[C@]12CC[C@@H]3c4ccc(O)cc4CC[C@H]3[C@@H]1C[C@@H](O)[C@@H]2O")
-1.95
>>> numeric_readout("O=S(=O)(O)c1cc(I)c(O)c2ncccc12")
-0.93

For record CC(C)(OCc1nn(Cc2ccccc2)c2ccccc12)C(=O)O the listed inhibition of SARS-CoV-2 cytopathic effect is 0.47

Kindly note the recorded inhibition of SARS-CoV-2 cytopathic effect for CCCCCCOc1cc2c(cc1N(C)c1ncc(C(=O)O)cn1)C(C)(C)CCC2(C)C , which is 3.71

The compound listed as COc1ccc(O)cc1 has a reported inhibition of SARS-CoV-2 cytopathic effect of 2.67

Reported inhibition of SARS-CoV-2 cytopathic effect ( CCCCOc1nc(N)c2c(n1)N(Cc1cccc(CN3CCCC3)c1)CC(=O)N2 ) = 0.03
